Attribution: ChEMBL document CHEMBL1201862

Test system: HT-29
Test: NCI tumour cell line growth inhibition, 48 h
Activity calls are given as the source filed them. Rule as the data show it: active = GI50 up to about 1.1 µM and inactive = higher.
Entries annotated with measured GI50

CC1=C(C(=O)Nc2cc(F)c(F)cc2F)C(c2ccc([N+](=O)[O-])cc2)C(C(=O)Nc2cc(F)c(F)cc2F)=C(C)N1    34.1 µM (inactive)

Answer with the recorded GI50 for the compound listed here: "CCN(CC)C(=S)SS(=O)(=O)c1cccc(N)c1"
> 100 µM (inactive)

Find the measured GI50 of CS(=O)(=O)N1CC(CCl)c2ccc(O)cc21 (stereo unspecified) and report it.
2.86 µM (inactive)

Return GI50 (reported value) for this compound: CC(=O)C1(C)CC(C#N)(C#N)C(C#N)=C1N (stereo unspecified)
> 100 µM (inactive)

Determine its reported GI50: "Nc1nc(N)c(C2=CCNCC2)c(=O)[nH]1"
> 100 µM (inactive)

Please report the measured GI50 for CCCCCCCCC/C=C1/CC(CO)(COC(=O)CC(C(C)C)C(C)C)OC1=O (stereo unspecified)
16.3 µM (inactive)

---

System: SK-MEL-5
Assay: NCI tumour cell line growth inhibition, 48 h
Activity calls are given as the source filed them. Rule as the data show it: active = GI50 up to about 1.1 µM and inactive = higher.
Please reply with one of these outcomes: y for active, n for inactive

// known answers, use as guide
C=C1C(C[C@@H]2O[C@H]3C[C@H]4O[C@@]5(C[C@@H]6O[C@]7(C[C@H](C)[C@@H]8O[C@@H]9CC(C(O)CO)O[C@@H]9C[C@@H]8O7)C[C@H](C)[C@@H]6O5)C[C@H]4O[C@H]3[C@H](C)[C@H]2O)O[C@@H](CC[C@@H]2O[C@@H](CC[C@@]34CC5O[C@H]6C(O[C@H]7CC[C@H](CC(=O)OC)O[C@@H]7[C@@H]6O3)[C@H]5O4)CC2=C)C[C@H]1C (stereo partly drawn)    y
N#C/C(C(=O)Nc1ccc(Cl)cc1)=C(/N)N1CCCC1    n

Lab log entry: "O=[N+]([O-])/C=C/c1c(Cl)cccc1Cl" — outcome as called in the assay?
n

For OC(CCN1CCN(CCOC(c2ccccc2)c2ccccc2)CC1)c1ccccc1 (stereo not drawn) , which call appears in the assay record?
n

---

Tested on: SK-MEL-5
Assay: NCI tumour cell line growth inhibition, 48 h
The source made the active and inactive calls. Cut-off read from the data, not from the text of the source: active = GI50 up to about 1.1 µM and inactive = higher.
// classify into active, inactive

Before answering, review these 8 worked examples.
CC(=O)N[C@@H](Cc1ccc(O)cn1)C(=O)NC1CCCCC1    inactive
COc1cc([N+](=O)[O-])c(S(=O)(=O)O)cc1-n1nc(-c2ccccc2)n[n+]1-c1cc(S(=O)(=O)[O-])c([N+](=O)[O-])cc1OC    inactive
CN(C)CC1CCCCCC(Br)C1=O (stereo unspecified)    inactive
c1ccc(C2OC3(CCC[C@H]4C[C@H]43)O[C@H]2c2ccccc2)cc1 (stereo partly specified)    inactive
Cc1cc(=O)[nH]c2c1C(=O)c1c(C)cc(=O)n(C)c1C2=O    active
CCCCN1C(=O)CS/C1=N/Nc1nc2c([nH]1)c(=O)n(C)c(=O)n2C    inactive
COc1ccc(-c2oc3cc(O)c(OC)c(O)c3c(=O)c2OC2OC(CO)C(O)C(O)C2O)cc1 (stereo unspecified)    inactive
COC1CCC(=O)N1CN(C(C)=O)c1ccc(C)cc1 (stereo unspecified)    inactive

For this compound, state the assay outcome: "COc1cc2c(c(OC)c1OC)-c1ccc(SC)cc1C(=O)CC2"
active

Assay outcome for "Cc1ccc(NC=O)c(-c2c(N)[nH]c(=S)[nH]c2=O)c1" : what was it?
inactive

Could you please tell me the result logged for "COc1cc2oc(=O)cc(C)c2c(OC)c1OC" in this assay?
inactive
